# SYSTEM: T1, CT45 (CT45A1, A2, A3, A5 to A10); CT45-IP peptide on HLA-A*02:01 (human)
# T1 peptide: KIFEMLEGV
# ASSAY_REMARKS: CT45-IP-HLA-A*02 dextramer on T cells with TCR mRNA; TCR found by tetramer sorting; full-length, on cells
Listed here: items and their measured dextramer-positive events.
Response body: numeric value in %, unit text excluded.

Some solved cases for reference:
BINDER	UNITS_OF_MEASURE	NUMERIC_READOUT
TCR-9 (TCR, V domains shown) Valpha: EDVEQSLFLSVREGDSSVINCTYTDSSSTYLYWYKQEPGAGLQLLTYIFSNMDMKQDQRLTVLLNKKDKHLSLRIADTQTGDSAIYFCAEKETAGNKLTFGGGTRVLVKP Vbeta: EPEVTQTPSHQVTQMGQEVILRCVPISNHLYFYWYRQILGQKVEFLVSFYNNEISEKSEIFDDQFSVERPDGSNFTLKIRSTKLEDSAMYFCASTVQSPRTNEQFFGPGTRLTVL	%	44
TCR-3 (TCR, V domains shown) Valpha: QKITQTQPGMFVQEKEAVTLDCTYDTSDQSYGLFWYKQPSSGEMIFLIYQGSYDEQNATEGRYSLNFQKARKSANLVISASQLGDSAMYFCGYSNYQLIWGAGTKLIIKP Vbeta: QVTQNPRYLITVTGKKLTVTCSQNMNHEYMSWYRQDPGLGLRQIYYSMNVEVTDKGDVPEGYKVSRKEKRNFPLILESPSPNQTSLYFCASREGTGGYQPQHFGDGTRLSIL	%	27.2

Next, consider the following binder.
What measured dextramer-positive events goes with TCR-13 (TCR, V domains shown) Valpha: QKITQTQPGMFVQEKEAVTLDCTYDTSDQSYGLFWYKQPSSGEMIFLIYQGSYDEQNATEGRYSLNFQKARKSANLVISASQLGDSAMYFCAMSDPIMDTGRRALTFGSGTRLQVQP Vbeta: GITQSPKYLFRKEGQNVTLSCEQNLNHDAMYWYRQDPGQGLRLIYYSQIVNDFQKGDIAEGYSVSREKKESFPLTVTSAQKNPTAFYLCASKSRGPNLADTQYFGPGTRLTVL ?
53.1
